test protocol: AUC in chimpanzee at 10 mg/kg, po by LC/MS analysis
Format: ADME, organism-based, Pan troglodytes
Design: dose 10 mg/kg, route oral
experimental context: plasma
quantity measured: AUC (µM·h)
Report the figure in µM·h without appending any unit label.

Query: # query: AUC of entry CC[C@@H]1C[C@]1(NC(=O)[C@@H]1C[C@@H]2CN1C(=O)[C@H](C(C)(C)C)NC(=O)OCC(C)(C)CCCCc1cccc3c1CN(C3)C(=O)O2)C(=O)NS(=O)(=O)C1CC1 [VANIPREVIR]
Result: 5.2

----------
Test system: Hepatitis C virus
test protocol: Antiviral activity against HCV JFH-1 infected in human HuH7 cells assessed as inhibition of viral replication after 24 hrs by replicon assay in presence of 10% fetal bovine serum
Type: functional, organism-based, Hepacivirus hominis
experimental context: JFH-1, Huh-7, 24 h
// returns not satisfied unless IC50 is strictly below 200 nM, in which case satisfied

Query: IC50 strictly < 200 nM for this molecule? `CC[C@@H]1C[C@]1(NC(=O)[C@@H]1C[C@@H]2CN1C(=O)[C@H](C(C)(C)C)NC(=O)OCCC/C=C/c1cccc3c1CN(C3)C(=O)O2)C(=O)NS(=O)(=O)C1CC1`
Result: not satisfied

Query: IC50 strictly < 200 nM for this molecule? CC[C@@H]1C[C@]1(NC(=O)[C@@H]1C[C@@H]2CN1C(=O)[C@H](C(C)(C)C)NC(=O)OCC(C)(C)CCCCc1cccc3c1CN(C3)C(=O)O2)C(=O)NS(=O)(=O)C1CC1 [VANIPREVIR]
Result: satisfied

Query: IC50 strictly < 200 nM for this molecule? `C=C[C@@H]1C[C@]1(NC(=O)[C@@H]1C[C@@H]2CN1C(=O)[C@H](C(C)(C)C)NC(=O)OCCCCCc1cccc3c1CN(C3)C(=O)O2)C(=O)NS(=O)(=O)C1CC1`
Result: satisfied

Query: IC50 strictly < 200 nM for this molecule? `CC[C@@H]1C[C@]1(NC(=O)[C@@H]1C[C@@H]2CN1C(=O)[C@H](C(C)(C)C)NC(=O)OCCCCCc1cccc3c1CN(C3)C(=O)O2)C(=O)NS(=O)(=O)C1CC1`
Result: satisfied

Query: IC50 strictly < 200 nM for this molecule? `C=C[C@@H]1C[C@]1(NC(=O)[C@@H]1C[C@@H]2CN1C(=O)[C@H](C(C)(C)C)NC(=O)OCCC/C=C/c1cccc3c1CN(C3)C(=O)O2)C(=O)NS(=O)(=O)C1CC1`
Result: satisfied
